Numbers sourced from PubChem BioAssay AID1996.

settings: buffer; pH 7.4; 200.0 µM
Result type: solubility kinetic

COC(=O)c1nc2ccccn2c1F : > 29.1 µg/mL

Task: Determine from records and report solubility kinetic for `O=C1CN(C(=O)c2ccc(F)cc2)c2ccccc2N1`
Result: > 40.5 µg/mL

Task: Determine from records and report solubility kinetic for `O=C(CN1C(=O)c2ccccc2C1=O)N1CCN=C1c1ccccc1`
Result: > 50 µg/mL

Task: Determine from records and report solubility kinetic for CC(C)CNC(=O)C1CCCN(C(=O)NCc2ccccc2)C1 (configuration not stated)
Result: > 47.6 µg/mL

Task: Determine from records and report solubility kinetic for CSCCC(NC(=O)COc1ccccc1)C(=O)N1CCCC(C)C1 (configuration not stated)
Result: > 54.7 µg/mL

Task: Determine from records and report solubility kinetic for `CN(C)CCCNC(=O)c1cc(C(=O)Cc2ccccc2)c[nH]1`
Result: > 47 µg/mL

Task: Determine from records and report solubility kinetic for CC1(c2ccc([N+](=O)[O-])cc2)NC(=O)NC1=O (configuration not stated)
Result: > 35.3 µg/mL
